target-desc: Escherichia coli CTP synthetase (EcCTPS) (Escherichia coli, UniProt P0A7E5)
Sequence (P0A7E5 whole entry): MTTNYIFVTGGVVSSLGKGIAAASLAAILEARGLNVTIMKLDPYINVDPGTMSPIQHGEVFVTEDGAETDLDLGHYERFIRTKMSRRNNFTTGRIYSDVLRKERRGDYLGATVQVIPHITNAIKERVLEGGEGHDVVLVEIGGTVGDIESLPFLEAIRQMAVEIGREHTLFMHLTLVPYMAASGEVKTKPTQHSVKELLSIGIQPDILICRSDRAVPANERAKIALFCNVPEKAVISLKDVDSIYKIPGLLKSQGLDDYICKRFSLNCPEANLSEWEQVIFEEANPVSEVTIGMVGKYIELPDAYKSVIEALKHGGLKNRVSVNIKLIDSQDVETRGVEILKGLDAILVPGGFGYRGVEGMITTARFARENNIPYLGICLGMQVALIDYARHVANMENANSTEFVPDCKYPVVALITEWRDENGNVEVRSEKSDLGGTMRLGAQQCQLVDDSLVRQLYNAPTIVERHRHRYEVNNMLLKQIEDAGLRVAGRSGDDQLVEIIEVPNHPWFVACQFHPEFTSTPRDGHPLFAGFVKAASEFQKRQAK
assay: CTP synthesis assay
details: IC50, 4 μM WT EcCTPS

compound: Nc1nc2c(ncn2[C@@H]2O[C@H](COP(=O)(O)OP(=O)(O)OP(=O)(O)O)[C@@H](O)[C@H]2O)c(=O)[nH]1 [GTP, guanosine-5’-triphosphate]
target-desc: Escherichia coli CTP synthetase (EcCTPS) (Escherichia coli, UniProt P0A7E5)
units-text: µM
IC50: 455

====

target-desc: Escherichia coli CTP synthetase (EcCTPS) (Escherichia coli, UniProt P0A7E5)
assay: CTP synthesis assay
details: K4 (four-site sequential binding model), standard conditions, best fit

compound: Nc1ccn([C@@H]2O[C@H](COP(=O)(O)OP(=O)(O)OP(=O)(O)O)[C@@H](O)[C@H]2O)c(=O)n1 [CTP, cytidine-5’-triphosphate]
Kd, µM: 7.5

====

target-desc: UniProt P0A7E5
assay: CTP synthesis assay
details: IC50, 500 μM GTP; otherwise standard
property-label: IC50 (µM)

molecule: Nc1ccn([C@@H]2O[C@H](COP(=O)(O)OP(=O)(O)OP(=O)(O)O)[C@@H](O)[C@H]2O)c(=O)n1 [CTP, cytidine-5’-triphosphate]
recorded-value: 220

====

target-desc: Escherichia coli CTP synthetase (EcCTPS) (Escherichia coli)
assay: CTP synthesis assay
details: fit IC50 value (four-site sequential binding model), standard conditions
pIC50: −log10 of the molar value.

compound: Nc1ccn([C@@H]2O[C@H](COP(=O)(O)OP(=O)(O)OP(=O)(O)O)[C@@H](O)[C@H]2O)c(=O)n1 [CTP, cytidine-5’-triphosphate]
pIC50: 3.41

====

target-desc: Escherichia coli CTP synthetase (EcCTPS) (Escherichia coli, UniProt P0A7E5)
assay: CTP synthesis assay
details: 50 μM GTP; otherwise standard
property-label: IC50 (µM)

compound: NC(=O)C1=CN([C@@H]2O[C@H](COP(=O)(O)OP(=O)(O)OC[C@H]3O[C@@H](n4cnc5c(N)ncnc54)[C@H](O)[C@@H]3O)[C@@H](O)[C@H]2O)C=CC1 [NADH]
property-label: IC50
units-text: µM
recorded-value: 770

====

target-desc: Escherichia coli CTP synthetase (EcCTPS) (Escherichia coli, UniProt P0A7E5)
assay: CTP synthesis assay
details: IC50, standard: 200 nM EcCTPS, 1.5 mM ATP, 600 μM UTP, 10 mM glutamine, 200 μM GTP (unless GTP titrated); linear extrapolation
pIC50: −log10 of the molar value.
Catalogue of pIC50 readings, one per entry.
property-label: pIC50

molecule: Nc1nc2c(ncn2[C@@H]2O[C@H](COP(=O)(O)OP(=O)(O)OP(=O)(O)O)[C@@H](O)[C@H]2O)c(=O)[nH]1 [GTP, guanosine-5’-triphosphate]
target-desc: Escherichia coli CTP synthetase (EcCTPS) (Escherichia coli, UniProt P0A7E5)
property-label: pIC50
recorded-value: 3.27
//
molecule: Nc1ncnc2c1ncn2[C@@H]1O[C@H](COP(=O)(O)OP(=O)(O)O)[C@@H](O)[C@H]1O [ADP, adenosine 5’-diphosphate]
target-desc: Escherichia coli CTP synthetase (EcCTPS) (Escherichia coli, UniProt P0A7E5)
property-label: pIC50
recorded-value: ~2.35
//
molecule: C[n+]1cccc(C(N)=O)c1 [1MeN, 1-methylnicotinamide]
target-desc: Escherichia coli CTP synthetase (EcCTPS) (Escherichia coli, UniProt P0A7E5)
property-label: pIC50
recorded-value: ~2.40

====

target-desc: Escherichia coli CTP synthetase (EcCTPS) (Escherichia coli, UniProt P0A7E5)
assay: CTP synthesis assay
details: K2 (four-site sequential binding model), standard conditions, best fit
pKd: −log10 of the molar value.

molecule: Nc1ccn([C@@H]2O[C@H](COP(=O)(O)OP(=O)(O)OP(=O)(O)O)[C@@H](O)[C@H]2O)c(=O)n1 [CTP, cytidine-5’-triphosphate]
pKd: 2.67

====

target-desc: Escherichia coli CTP synthetase (EcCTPS) (Escherichia coli, UniProt P0A7E5)
assay: CTP synthesis assay
details: Ki (two-site model), 4 μM WT
pKi: −log10 of the molar value.

compound: Nc1nc2c(ncn2[C@@H]2O[C@H](COP(=O)(O)OP(=O)(O)OP(=O)(O)O)[C@@H](O)[C@H]2O)c(=O)[nH]1 [GTP, guanosine-5’-triphosphate]
pKi: 3.66

====

target-desc: Escherichia coli CTP synthetase (EcCTPS) (Escherichia coli)
assay: CTP synthesis assay
details: EC50 (activation), 4 μM WT EcCTPS
property-label: EC50

molecule: Nc1nc2c(ncn2[C@@H]2O[C@H](COP(=O)(O)OP(=O)(O)OP(=O)(O)O)[C@@H](O)[C@H]2O)c(=O)[nH]1 [GTP, guanosine-5’-triphosphate]
recorded-value: 27 µM

====

target-desc: E277R EcCTPS (Escherichia coli, UniProt P0A7E5, E277R)
Sequence (P0A7E5 whole entry E277R): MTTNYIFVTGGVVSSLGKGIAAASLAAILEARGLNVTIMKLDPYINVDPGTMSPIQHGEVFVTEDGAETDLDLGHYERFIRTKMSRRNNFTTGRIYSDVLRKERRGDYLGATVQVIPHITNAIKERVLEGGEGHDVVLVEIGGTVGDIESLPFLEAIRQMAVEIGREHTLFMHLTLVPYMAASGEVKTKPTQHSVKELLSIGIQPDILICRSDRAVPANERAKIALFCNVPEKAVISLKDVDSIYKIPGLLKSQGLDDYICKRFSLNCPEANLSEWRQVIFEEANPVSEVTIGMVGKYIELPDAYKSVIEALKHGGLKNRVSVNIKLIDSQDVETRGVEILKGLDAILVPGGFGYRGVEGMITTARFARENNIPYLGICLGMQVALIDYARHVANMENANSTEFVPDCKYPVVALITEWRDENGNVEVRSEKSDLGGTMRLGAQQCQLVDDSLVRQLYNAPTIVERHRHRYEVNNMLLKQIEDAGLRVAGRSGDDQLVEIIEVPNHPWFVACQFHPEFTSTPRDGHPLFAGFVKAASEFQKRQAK
assay: CTP synthesis assay, filament-blocking mutant E277R EcCTPS

molecule: Nc1nc2c(ncn2[C@@H]2O[C@H](COP(=O)(O)OP(=O)(O)OP(=O)(O)O)[C@@H](O)[C@H]2O)c(=O)[nH]1 [GTP, guanosine-5’-triphosphate]
Ki: 342 µM

====

target-desc: E277R EcCTPS (Escherichia coli, UniProt P0A7E5, E277R)
assay: CTP synthesis assay, filament-blocking mutant E277R EcCTPS

compound: Nc1nc2c(ncn2[C@@H]2O[C@H](COP(=O)(O)OP(=O)(O)OP(=O)(O)O)[C@@H](O)[C@H]2O)c(=O)[nH]1 [GTP, guanosine-5’-triphosphate]
units-text: µM
IC50: 697

====

Listing of entries alongside the reported log10 IC50.
target-desc: Escherichia coli CTP synthetase (EcCTPS) (Escherichia coli)
assay: CTP synthesis assay
details: standard: 200 nM EcCTPS, 1.5 mM ATP, 600 μM UTP, 10 mM glutamine, 200 μM GTP (unless GTP titrated); linear extrapolation
property-label: log10 IC50 (log10 of the value in µM)

compound: NC(=O)C1=CN([C@@H]2O[C@H](COP(=O)(O)OP(=O)(O)OC[C@H]3O[C@@H](n4cnc5c(N)ncnc54)[C@H](O)[C@@H]3O)[C@@H](O)[C@H]2O)C=CC1
target-desc: Escherichia coli CTP synthetase (EcCTPS) (Escherichia coli)
property-label: log10 IC50
recorded-value: 2.67

compound: NC(=O)c1ccc[n+]([C@@H]2O[C@H](COP(=O)([O-])OP(=O)(O)OC[C@H]3O[C@@H](n4cnc5c(N)ncnc54)[C@H](OP(=O)(O)O)[C@@H]3O)[C@@H](O)[C@H]2O)c1
target-desc: Escherichia coli CTP synthetase (EcCTPS) (Escherichia coli)
property-label: log10 IC50
recorded-value: 3.11

compound: CN1C=CCC(C(N)=O)=C1 [1MDHN, 1-methyl 1,4-dihydronicotinamide]
target-desc: Escherichia coli CTP synthetase (EcCTPS) (Escherichia coli)
property-label: log10 IC50
recorded-value: 2.15

compound: NC(=O)c1ccc[n+]([C@@H]2O[C@H](COP(=O)([O-])OP(=O)(O)OC[C@H]3O[C@@H](n4cnc5c(N)ncnc54)[C@H](O)[C@@H]3O)[C@@H](O)[C@H]2O)c1
target-desc: Escherichia coli CTP synthetase (EcCTPS) (Escherichia coli)
property-label: log10 IC50
recorded-value: 3.23

compound: NC(=O)C1=CN([C@@H]2O[C@H](COP(=O)(O)OP(=O)(O)OC[C@H]3O[C@@H](n4cnc5c(N)ncnc54)[C@H](OP(=O)(O)O)[C@@H]3O)[C@@H](O)[C@H]2O)C=CC1
target-desc: Escherichia coli CTP synthetase (EcCTPS) (Escherichia coli)
property-label: log10 IC50
recorded-value: 2.65
